Test system: MIA-PaCa-2 (Pancreatic Carcinoma)
Assay: combination Emax (second highest fraction inhibited in the dose matrix, 72 h); higher = more inhibition; extreme values may be limits of the assay
// combination Emax lookup, one value per entry
Keep the answer to the number alone.

Task item: Quick check: combination Emax on MIA-PaCa-2 (Pancreatic Carcinoma), item CN(CCO)CC[C@H](CSc1ccccc1)Nc1ccc(S(=O)(=O)NC(=O)c2ccc(N3CCC([C@@H](O)c4ccccc4-c4ccc(Cl)cc4)CC3)cc2)cc1S(=O)(=O)C(F)(F)F [AZD4320] + C=CCn1c(=O)c2cnc(Nc3ccc(N4CCN(C)CC4)cc3)nc2n1-c1cccc(C(C)(C)O)n1 [AZD1775] (first compound max 1 µM, partner max 1 µM) ?
Reply: 0.6

Continuing:
Task item: Quick check: combination Emax on MIA-PaCa-2 (Pancreatic Carcinoma), item CC1(C)CCC(CN2CCN(c3ccc(C(=O)NS(=O)(=O)c4ccc(NCC5CCOCC5)c([N+](=O)[O-])c4)c(Oc4cnc5[nH]ccc5c4)c3)CC2)=C(c2ccc(Cl)cc2)C1 [Venetoclax] + C=CCn1c(=O)c2cnc(Nc3ccc(N4CCN(C)CC4)cc3)nc2n1-c1cccc(C(C)(C)O)n1 [AZD1775] (first compound max 1 µM, partner max 1 µM) ?
Reply: 0.795

====

Test system: HSC-4 (Oral Cavity Carcinoma)
Assay: combination Emax (second highest fraction inhibited in the dose matrix, 72 h); higher = more inhibition; extreme values may be limits of the assay
measured.quantity: combination Emax
Keep the answer to the number alone.

Task item: Look up combination Emax for this compound: Cn1cnc2c(F)c(Nc3ccc(Br)cc3Cl)c(C(=O)NOCCO)cc21 [Selumetinib] + CC(C)n1c(=O)n(C)c2cnc3cc(F)c(-c4ccc(OCCCN5CCCCC5)nc4)cc3c21 [AZD1390] (first compound max 10 µM, 7x7, partner max 0.3 µM)
Reply: 0.132

Task item: What do you have for Cn1cnc2c(F)c(Nc3ccc(Br)cc3Cl)c(C(=O)NOCCO)cc21 [Selumetinib] + C=CCn1c(=O)c2cnc(Nc3ccc(N4CCN(C)CC4)cc3)nc2n1-c1cccc(C(C)(C)O)n1 [AZD1775] (first compound max 10 µM, partner max 1 µM) ?
Reply: 0.427

Task item: What do you have for CC1(C)CCC(CN2CCN(c3ccc(C(=O)NS(=O)(=O)c4ccc(NCC5CCOCC5)c([N+](=O)[O-])c4)c(Oc4cnc5[nH]ccc5c4)c3)CC2)=C(c2ccc(Cl)cc2)C1 [Venetoclax] + CN(C)CCCOc1ccc(-c2ccc3ncc4c(c3c2)n(C2CCOCC2)c(=O)n4C)cn1 [AZD0156] (first compound max 1 µM, 7x7, partner max 1 µM) ?
Reply: 0.14

Turning now to a further compound:
Task item: Look up combination Emax for this compound: CC(=O)c1c(C)c2cnc(Nc3ccc(N4CCNCC4)cn3)nc2n(C2CCCC2)c1=O [Palbociclib] + Cn1cnc2c(F)c(Nc3ccc(Br)cc3Cl)c(C(=O)NOCCO)cc21 [Selumetinib] (first compound max 10 µM, 7x7, partner max 10 µM)
Reply: 0.261

====

// combination Emax lookup, one value per entry
Tested on: KARPAS-299 (T-Cell Non-Hodgkin's Lymphoma)
Test: combination Emax (second highest fraction inhibited in the dose matrix, 72 h); higher = more inhibition; extreme values may be limits of the assay
Keep the answer to the number alone.

Completed entries (count: 2):
Task item: Quick check: combination Emax on KARPAS-299 (T-Cell Non-Hodgkin's Lymphoma), item CC1(C)CCC(CN2CCN(c3ccc(C(=O)NS(=O)(=O)c4ccc(NCC5CCOCC5)c([N+](=O)[O-])c4)c(Oc4cnc5[nH]ccc5c4)c3)CC2)=C(c2ccc(Cl)cc2)C1 [Venetoclax] + CCN(CCO)CCCOc1ccc2c(Nc3cc(CC(=O)Nc4cccc(F)c4)[nH]n3)ncnc2c1 [AZD2811] (first compound max 1 µM, 7x7, partner max 1 µM) ?
Reply: 0.818

Task item: What do you have for CN(CCO)CC[C@H](CSc1ccccc1)Nc1ccc(S(=O)(=O)NC(=O)c2ccc(N3CCC([C@@H](O)c4ccccc4-c4ccc(Cl)cc4)CC3)cc2)cc1S(=O)(=O)C(F)(F)F [AZD4320] + C[C@@H](Nc1cc(F)cc(F)c1)c1cc(C(=O)N(C)C)cc2c(=O)cc(N3CCOCC3)oc12 [AZD8186] (first compound max 1 µM, 7x7, partner max 3 µM) ?
Reply: 0.247

Turning now to a further molecule:
Task item: Quick check: combination Emax on KARPAS-299 (T-Cell Non-Hodgkin's Lymphoma), item Cn1cnc2c(F)c(Nc3ccc(Br)cc3Cl)c(C(=O)NOCCO)cc21 [Selumetinib] + CC(C)n1c(=O)n(C)c2cnc3cc(F)c(-c4ccc(OCCCN5CCCCC5)nc4)cc3c21 [AZD1390] (first compound max 10 µM, 7x7, partner max 0.3 µM) ?
Reply: 0.347

====

Tested on: PANC-04-03 (Pancreatic Carcinoma)
Assay: Bliss excess, mean over the matrix (fraction); higher = more synergy
Record 1 (yes) whenever Bliss excess is at -0.05 or higher; record 0 (no) when lower.

Task item: Assess whether reported Bliss excess for O=C(c1cc(Cc2n[nH]c(=O)c3ccccc23)ccc1F)N1CCN(C(=O)C2CC2)CC1 [Olaparib] + Cc1c2c(nn1C)CSCc1cc(n(C)n1)CSc1cc(c3ccccc3c1)OCCCc1c(C(=O)O)n(C)c3c-2c(Cl)ccc13 [AZD5991] (first compound max 10 µM, 7x7, partner max 1 µM) sits at -0.05 or higher.
Reply: 0 (no)

====

System: KYSE-450 (Esophageal Squamous Cell Carcinoma)
Test: Bliss excess, mean over the matrix (fraction); higher = more synergy
// Bliss excess lookup, one value per entry
Keep the answer to the number alone.

Completed entries (count: 5):
Task item: Quick check: Bliss excess on KYSE-450 (Esophageal Squamous Cell Carcinoma), item C=CCn1c(=O)c2cnc(Nc3ccc(N4CCN(C)CC4)cc3)nc2n1-c1cccc(C(C)(C)O)n1 [AZD1775] + O=C(c1cc(Cc2n[nH]c(=O)c3ccccc23)ccc1F)N1CCN(C(=O)C2CC2)CC1 [Olaparib] (first compound max 1 µM, partner max 10 µM) ?
Reply: -0.0897

Task item: What do you have for CN(CCO)CC[C@H](CSc1ccccc1)Nc1ccc(S(=O)(=O)NC(=O)c2ccc(N3CCC([C@@H](O)c4ccccc4-c4ccc(Cl)cc4)CC3)cc2)cc1S(=O)(=O)C(F)(F)F [AZD4320] + C[C@@H](Nc1cc(F)cc(F)c1)c1cc(C(=O)N(C)C)cc2c(=O)cc(N3CCOCC3)oc12 [AZD8186] (first compound max 1 µM, 7x7, partner max 3 µM) ?
Reply: -0.07

Task item: What do you have for NC1(C(=O)N[C@@H](CCO)c2ccc(Cl)cc2)CCN(c2ncnc3[nH]ccc23)CC1 [Capivasertib] + CC(C)n1c(=O)n(C)c2cnc3cc(F)c(-c4ccc(OCCCN5CCCCC5)nc4)cc3c21 [AZD1390] (first compound max 10 µM, 7x7, partner max 0.3 µM) ?
Reply: -0.0209

Task item: What do you have for Cc1cc2ncnn2cc1Nc1ncc2c(n1)n(C1CCOCC1)c(=O)n2C [AZD7648] + O=C(c1cc(Cc2n[nH]c(=O)c3ccccc23)ccc1F)N1CCN(C(=O)C2CC2)CC1 [Olaparib] (first compound max 10 µM, 7x7, partner max 10 µM) ?
Reply: -0.0635

Task item: What do you have for C[C@@H](c1ccc2nccn2c1)n1nnc2ncc(-c3cnn(C)c3)nc21 [Savolitinib] + Cc1c2c(nn1C)CSCc1cc(n(C)n1)CSc1cc(c3ccccc3c1)OCCCc1c(C(=O)O)n(C)c3c-2c(Cl)ccc13 [AZD5991] (first compound max 1 µM, 7x7, partner max 1 µM) ?
Reply: -0.0186

Continuing:
Task item: Quick check: Bliss excess on KYSE-450 (Esophageal Squamous Cell Carcinoma), item COc1nnc2ccc(N3CCC(c4ccc(OCCN5CCN(C)C(=O)[C@H]5C)cc4)CC3)nn12 [AZD5153] + CC1(C)CCC(CN2CCN(c3ccc(C(=O)NS(=O)(=O)c4ccc(NCC5CCOCC5)c([N+](=O)[O-])c4)c(Oc4cnc5[nH]ccc5c4)c3)CC2)=C(c2ccc(Cl)cc2)C1 [Venetoclax] (first compound max 1 µM, 7x7, partner max 1 µM) ?
Reply: -0.0404

====

// Bliss excess lookup, one value per entry
System: SU8686 (Pancreatic Carcinoma)
Experiment: Bliss excess, mean over the matrix (fraction); higher = more synergy
Keep the answer to the number alone.

Completed entries (count: 3):
Task item: Quick check: Bliss excess on SU8686 (Pancreatic Carcinoma), item Cn1cnc2c(F)c(Nc3ccc(Br)cc3Cl)c(C(=O)NOCCO)cc21 [Selumetinib] + C[C@@H]1COCCN1C2=NC(=NC(=C2)C3(CC3)[S@](=N)(=O)C)C4=C5C=CNC5=NC=C4 [AZD6738] (first compound max 10 µM, 7x7, partner max 10 µM) ?
Reply: -0.0168

Task item: What do you have for C=CCn1c(=O)c2cnc(Nc3ccc(N4CCN(C)CC4)cc3)nc2n1-c1cccc(C(C)(C)O)n1 [AZD1775] + C[C@@H]1COCCN1C2=NC(=NC(=C2)C3(CC3)[S@](=N)(=O)C)C4=C5C=CNC5=NC=C4 [AZD6738] (first compound max 1 µM, partner max 10 µM) ?
Reply: -0.0188

Task item: What do you have for Cn1cnc2c(F)c(Nc3ccc(Br)cc3Cl)c(C(=O)NOCCO)cc21 [Selumetinib] + C=CCn1c(=O)c2cnc(Nc3ccc(N4CCN(C)CC4)cc3)nc2n1-c1cccc(C(C)(C)O)n1 [AZD1775] (first compound max 10 µM, partner max 1 µM) ?
Reply: -0.0089

Continuing:
Task item: Quick check: Bliss excess on SU8686 (Pancreatic Carcinoma), item Cc1c2c(nn1C)CSCc1cc(n(C)n1)CSc1cc(c3ccccc3c1)OCCCc1c(C(=O)O)n(C)c3c-2c(Cl)ccc13 [AZD5991] + CN(C)CCCOc1ccc(-c2ccc3ncc4c(c3c2)n(C2CCOCC2)c(=O)n4C)cn1 [AZD0156] (first compound max 1 µM, 7x7, partner max 1 µM) ?
Reply: -0.0413
